- assaySystem: human A2a receptor (Homo sapiens (Human))
- Sequence (P29274 whole entry): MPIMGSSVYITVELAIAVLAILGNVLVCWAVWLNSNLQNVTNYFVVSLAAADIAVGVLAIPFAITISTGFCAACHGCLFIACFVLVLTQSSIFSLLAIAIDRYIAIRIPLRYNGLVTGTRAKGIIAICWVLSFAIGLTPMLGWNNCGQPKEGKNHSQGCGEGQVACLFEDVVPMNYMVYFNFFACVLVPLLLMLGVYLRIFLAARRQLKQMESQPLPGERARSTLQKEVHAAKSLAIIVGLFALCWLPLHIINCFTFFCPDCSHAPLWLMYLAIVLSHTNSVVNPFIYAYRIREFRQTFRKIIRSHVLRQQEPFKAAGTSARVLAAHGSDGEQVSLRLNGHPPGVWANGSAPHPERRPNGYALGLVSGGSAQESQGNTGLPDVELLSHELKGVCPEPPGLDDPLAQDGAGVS
- assayExplanation: A2a competition binding assay using Scintillation Proximity technology
- testParameters: 0.25 μg of membranes from HEK293 cells expressing the human A2a receptor
- Description: Binding affinities of compounds of the invention for the human A2a receptor were determined in a competition binding assay using Scintillation Proximity technology. […] The beads were then allowed to settle to the bottom of the wells for 1 hr, after which the membrane-associated radioactivity was determined by scintillation counting in a TopCount microplate reader. Ki values were determined using the Cheng-Prusoff equation. […]
pKi: −log10 of the molar value.
attributeMeasured: pKi

// worked examples, pKi included
COc1cccc2c(C(=O)NCc3nc(C)ccc3C)nc(N)nc12; 9.70
COc1cccc2c(C(=O)NCc3cccc(COCC4CCCC4)n3)nc(N)nc12; 9.30
Nc1nc(C(=O)NCc2ncccn2)c2cccc(I)c2n1; 6.64
CCn1cccc(CNC(=O)c2nc(N)nc3c(OC)cccc23)c1=O; 9.70
Cc1ccc(F)c(CNC(=O)c2nc(N)nc3c(-c4ncco4)cccc23)n1; 8.77

A: CC(C)Oc1cccc(CNC(=O)c2nc(N)nc3c(F)cccc23)n1
B: COc1cccc2c(C(=O)N[C@@H](CO)c3ccccc3)nc(N)nc12
C: COc1cccc2c(C(=O)NCc3cccc(C4CC4)n3)nc(N)nc12
input: Arrange the 3 molecules by rising pKi, starting with the smallest. # answer = labels listed in requested order
output: B, A, C
